molecular target: S1P1 (membranes prepared from S1P1/CHO cells) (Homo sapiens (Human)); assay: Receptor [35S] GTPγS binding assay (S1P1 GTPγS); type: biochemical; details: phosphate examples; read-out: S1P1 GTPγS
# Lookup of reported EC50 keyed by entry
Metric Name: EC50

{"Molecule": "N[C@]1(COP(=O)(O)O)CC[C@H](c2ccc3c(c2)CC[C@H](C[S+]([O-])c2ccccc2)C3)C1 (stereo partly shown)", "Subject Of Test": "S1P1 (membranes prepared from S1P1/CHO cells) (Homo sapiens (Human))", "Metric Name": "EC50", "Readout Value": "100 to 1000 nM"}
{"Molecule": "N[C@@]1(COP(=O)(O)O)CC[C@@H](c2ccc3c(c2)CC[C@H](OCCOCc2ccccc2)C3)C1", "Subject Of Test": "S1P1 (membranes prepared from S1P1/CHO cells) (Homo sapiens (Human))", "Metric Name": "EC50", "Readout Value": "< 10 nM"}
{"Molecule": "CCOc1ccc(C[C@@H]2CCc3cc([C@H]4CC[C@](N)(COP(=O)(O)O)C4)ccc3C2)cc1", "Subject Of Test": "S1P1 (membranes prepared from S1P1/CHO cells) (Homo sapiens (Human))", "Metric Name": "EC50", "Readout Value": "100 to 1000 nM"}
{"Molecule": "COc1cccc(SC[C@@H]2CCc3cc([C@H]4CC[C@](N)(COP(=O)(O)O)C4)ccc3C2)c1", "Subject Of Test": "S1P1 (membranes prepared from S1P1/CHO cells) (Homo sapiens (Human))", "Metric Name": "EC50", "Readout Value": "100 to 1000 nM"}
{"Molecule": "CCCCC(C)(C)C(=O)OC1CCc2cc([C@H]3CC[C@@](N)(COP(=O)(O)O)C3)ccc2C1 (stereo partly shown)", "Subject Of Test": "S1P1 (membranes prepared from S1P1/CHO cells) (Homo sapiens (Human))", "Metric Name": "EC50", "Readout Value": "< 10 nM"}
{"Molecule": "CCCCCOC[C@H]1CCc2cc([C@H]3CC[C@](N)(COP(=O)(O)O)C3)ccc2C1", "Subject Of Test": "S1P1 (membranes prepared from S1P1/CHO cells) (Homo sapiens (Human))", "Metric Name": "EC50", "Readout Value": "< 10 nM"}
{"Molecule": "COCc1cccc(C[C@@H]2CCc3cc([C@H]4CC[C@](N)(COP(=O)(O)O)C4)ccc3C2)c1", "Subject Of Test": "S1P1 (membranes prepared from S1P1/CHO cells) (Homo sapiens (Human))", "Metric Name": "EC50", "Readout Value": "10 to 100 nM"}

----------
# Lookup of reported pEC50 keyed by entry
Biological target: S1P1 (membranes prepared from S1P1/CHO cells) (Homo sapiens (Human), UniProt P21453)
Sequence (P21453 whole entry): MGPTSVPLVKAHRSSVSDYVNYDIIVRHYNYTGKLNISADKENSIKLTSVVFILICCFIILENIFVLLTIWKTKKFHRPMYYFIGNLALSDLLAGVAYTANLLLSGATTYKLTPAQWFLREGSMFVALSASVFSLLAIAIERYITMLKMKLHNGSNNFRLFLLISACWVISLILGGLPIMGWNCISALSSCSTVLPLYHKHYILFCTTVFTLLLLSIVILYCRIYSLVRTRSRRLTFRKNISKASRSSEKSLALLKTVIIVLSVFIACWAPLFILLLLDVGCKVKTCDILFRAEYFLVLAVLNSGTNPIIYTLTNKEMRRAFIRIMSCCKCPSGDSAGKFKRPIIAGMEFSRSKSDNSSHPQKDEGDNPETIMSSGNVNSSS
Assay: Receptor [35S] GTPγS binding assay (S1P1 GTPγS)
Format: biochemical
Conditions: phosphate examples; read-out: S1P1 GTPγS
Method: Receptor [^35S] GTPγS Binding Assays: (S1P1 GTPγS/S1P3 GTPγS) Compounds were loaded in a 384 Falcon v-bottom plate (0.5 μl/well in a 11 point, 3-fold dilution). Membranes prepared from S1P1/CHO cells or EDG3-Gal5-bla HEK293T cells (EDG3 equivalent S1P3) were added to the compound plate (40 μl/well, final protein 3 μg/well) with MULTIDROP®. [^35S] […]
pEC50: −log10 of the molar value.
Metric Name: pEC50

{"Compound": "CCCC/C=C/C1=Cc2ccc([C@H]3CC[C@](N)(COP(=O)(O)O)C3)cc2CC1", "Subject Of Test": "S1P1 (membranes prepared from S1P1/CHO cells) (Homo sapiens (Human), UniProt P21453)", "Metric Name": "pEC50", "Readout Value": "6.00 to 7.00"}
{"Compound": "CC(C)(C)CSC[C@H]1CCc2cc([C@H]3CC[C@](N)(COP(=O)(O)O)C3)ccc2C1", "Subject Of Test": "S1P1 (membranes prepared from S1P1/CHO cells) (Homo sapiens (Human), UniProt P21453)", "Metric Name": "pEC50", "Readout Value": "7.00 to 8.00"}
{"Compound": "CC(C)(C)CCOC[C@@H]1CCc2cc([C@H]3CC[C@](N)(COP(=O)(O)O)C3)ccc2C1", "Subject Of Test": "S1P1 (membranes prepared from S1P1/CHO cells) (Homo sapiens (Human), UniProt P21453)", "Metric Name": "pEC50", "Readout Value": "> 8.00"}
{"Compound": "COCCC[C@H]1CCc2cc([C@@H]3CC[C@@](N)(COP(=O)(O)O)C3)ccc2C1", "Subject Of Test": "S1P1 (membranes prepared from S1P1/CHO cells) (Homo sapiens (Human), UniProt P21453)", "Metric Name": "pEC50", "Readout Value": "7.00 to 8.00"}
{"Compound": "C=CCCCC[C@@H]1CCc2cc([C@H]3CC[C@](N)(COP(=O)(O)O)C3)ccc2C1", "Subject Of Test": "S1P1 (membranes prepared from S1P1/CHO cells) (Homo sapiens (Human), UniProt P21453)", "Metric Name": "pEC50", "Readout Value": "7.00 to 8.00"}
{"Compound": "CCC=CCOC[C@@H]1CCc2cc([C@H]3CC[C@](N)(COP(=O)(O)O)C3)ccc2C1", "Subject Of Test": "S1P1 (membranes prepared from S1P1/CHO cells) (Homo sapiens (Human), UniProt P21453)", "Metric Name": "pEC50", "Readout Value": "> 8.00"}
{"Compound": "C/C(=N\\OCc1ccccc1)[C@@H]1CCc2cc([C@H]3CC[C@](N)(COP(=O)(O)O)C3)ccc2C1", "Subject Of Test": "S1P1 (membranes prepared from S1P1/CHO cells) (Homo sapiens (Human), UniProt P21453)", "Metric Name": "pEC50", "Readout Value": "> 8.00"}
{"Compound": "CCCCN(C)C(=O)OC1CCc2cc([C@H]3CC[C@](N)(COP(=O)(O)O)C3)ccc2C1 (stereo partly drawn)", "Subject Of Test": "S1P1 (membranes prepared from S1P1/CHO cells) (Homo sapiens (Human), UniProt P21453)", "Metric Name": "pEC50", "Readout Value": "> 8.00"}
{"Compound": "COc1ccc(F)c(OC[C@@H]2CCc3cc([C@H]4CC[C@](N)(COP(=O)(O)O)C4)ccc3C2)c1 [compound 486]", "Subject Of Test": "S1P1 (membranes prepared from S1P1/CHO cells) (Homo sapiens (Human), UniProt P21453)", "Metric Name": "pEC50", "Readout Value": "> 8.00"}
{"Compound": "COc1ccc(OC[C@@H]2CCc3cc([C@H]4CC[C@](N)(COP(=O)(O)O)C4)ccc3C2)cc1", "Subject Of Test": "S1P1 (membranes prepared from S1P1/CHO cells) (Homo sapiens (Human), UniProt P21453)", "Metric Name": "pEC50", "Readout Value": "7.00 to 8.00"}
{"Compound": "N[C@]1(COP(=O)(O)O)CC[C@H](c2ccc3c(c2)CC[C@@H](CSCCc2ccncc2)C3)C1", "Subject Of Test": "S1P1 (membranes prepared from S1P1/CHO cells) (Homo sapiens (Human), UniProt P21453)", "Metric Name": "pEC50", "Readout Value": "7.00 to 8.00"}
{"Compound": "CC(C)=CCOCCO[C@@H]1CCc2cc(C3CCC(N)(COP(=O)(O)O)C3)ccc2C1 (single isomer, unassigned)", "Subject Of Test": "S1P1 (membranes prepared from S1P1/CHO cells) (Homo sapiens (Human), UniProt P21453)", "Metric Name": "pEC50", "Readout Value": "7.00 to 8.00"}
{"Compound": "CC1(C)c2cc([C@@H]3CC[C@](N)(COP(=O)(O)O)C3)ccc2C(=O)N1CCCc1ccccc1", "Subject Of Test": "S1P1 (membranes prepared from S1P1/CHO cells) (Homo sapiens (Human), UniProt P21453)", "Metric Name": "pEC50", "Readout Value": "6.00 to 7.00"}
{"Compound": "COc1ccc(COC[C@@H]2CCc3cc([C@H]4CC[C@](N)(COP(=O)(O)O)C4)ccc3C2)cc1", "Subject Of Test": "S1P1 (membranes prepared from S1P1/CHO cells) (Homo sapiens (Human), UniProt P21453)", "Metric Name": "pEC50", "Readout Value": "7.00 to 8.00"}
{"Compound": "COc1cccc(C[C@H]2CCc3cc([C@H]4CC[C@](N)(COP(=O)(O)O)C4)ccc3C2)c1", "Subject Of Test": "S1P1 (membranes prepared from S1P1/CHO cells) (Homo sapiens (Human), UniProt P21453)", "Metric Name": "pEC50", "Readout Value": "> 8.00"}
